System: HEK-293T
Assay: Incucyte cell viability with HEK293T; note: unitless GR value; below 1 slowed growth and below 0 cell loss
Type: toxicity, cell-based
Settings: human, 24 h, 10 µM, compound concentration 10 uM, replicate number 2
Listed here are compounds together with their documented Growth Rate.
// return just the number, without any unit appended

Please review the entries below; each comes with its answer.
Fc1ccc(-c2c3cccc(C(F)(F)F)c3nn2Cc2ccc(F)cc2Cl)cc1 :: 0.73
CCCNc1ccc2ncc(-c3ccncc3)n2n1 :: -0.01
CCNC1=N[C@@H]2[C@@H](O)[C@H](O)[C@@H](CO)O[C@@H]2S1 :: 0.89
O=C(NS(=O)(=O)N1CCC1)c1cc(C2CC2)c(OCC23CC4CC(CC(C4)C2)C3)cc1F :: 0.92
CN1C(=O)c2c(nn(Cc3ccc(-c4cccc(F)n4)cc3)c2Nc2ccccc2)N2C1=N[C@@H]1CCC[C@@H]12.O=P(O)(O)O [LENRISPODUN PHOSPHATE] :: 0.83

What value of measured Growth Rate is listed for `CN(C(=O)c1cnn2cccnc12)c1cc2c(cc1N1CCOCC1)C(=O)N(C[C@@H](F)C(C)(C)O)C2` ?
0.92

What value of measured Growth Rate is listed for `O=C(Nc1ccccc1Br)N[C@@H]1CCN(c2ccc(C(F)(F)F)cn2)C1` ?
0.07

What value of measured Growth Rate is listed for `O=C(NC[C@@H]1[C@H]2CN(C(=O)OCc3cc(C(F)(F)F)cc(C(F)(F)F)c3)C[C@@H]12)c1ccc2[nH]nnc2c1` ?
0.91
